# system: HIV-1 JR-CSF Env T341A (HIV-1 isolate JR-CSF) (UniProt P20871)
# experiment.summary: cell-based or functional assay
quantity.measured: Fold IC50 increase relative to wild-type (fold)
Express the result in fold but write the number alone.

Take a look at these entries with their results.
PGT-135 (antibody, V domains shown) VH: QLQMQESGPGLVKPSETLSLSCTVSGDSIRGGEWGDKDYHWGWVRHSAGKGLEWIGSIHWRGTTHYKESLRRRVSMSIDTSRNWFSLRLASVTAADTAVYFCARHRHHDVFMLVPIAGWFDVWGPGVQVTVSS VL: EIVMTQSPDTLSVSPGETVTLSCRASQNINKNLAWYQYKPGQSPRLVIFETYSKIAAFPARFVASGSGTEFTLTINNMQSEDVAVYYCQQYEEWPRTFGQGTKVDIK	0.6
PGT-125 (antibody, V domains shown) VH: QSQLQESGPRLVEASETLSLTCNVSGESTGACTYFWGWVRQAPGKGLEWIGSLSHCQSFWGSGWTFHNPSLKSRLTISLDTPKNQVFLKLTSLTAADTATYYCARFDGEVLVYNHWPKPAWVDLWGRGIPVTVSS VL: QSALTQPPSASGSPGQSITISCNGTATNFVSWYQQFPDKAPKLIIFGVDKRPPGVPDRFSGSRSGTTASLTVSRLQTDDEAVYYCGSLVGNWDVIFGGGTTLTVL	1.1

Kindly consider the entry below.
Would you kindly share the measured Fold IC50 increase relative to wild-type for PGT-130 (antibody, V domains shown) VH: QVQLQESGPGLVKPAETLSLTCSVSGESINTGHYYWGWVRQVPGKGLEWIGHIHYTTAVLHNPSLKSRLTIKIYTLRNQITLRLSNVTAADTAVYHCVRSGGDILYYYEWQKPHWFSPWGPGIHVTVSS VL: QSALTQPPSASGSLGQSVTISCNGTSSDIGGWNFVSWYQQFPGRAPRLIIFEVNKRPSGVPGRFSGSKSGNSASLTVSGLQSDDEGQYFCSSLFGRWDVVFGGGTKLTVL ?
0.8
